SYSTEM: T1, human recombinant GIP receptor (human, UniProt P48546 22-466)
T1 construct: whole, on cells; Assayed as washed membranes of CHO-K1 cells expressing the receptor; also called hGIP receptor
T1 sequence (looked up): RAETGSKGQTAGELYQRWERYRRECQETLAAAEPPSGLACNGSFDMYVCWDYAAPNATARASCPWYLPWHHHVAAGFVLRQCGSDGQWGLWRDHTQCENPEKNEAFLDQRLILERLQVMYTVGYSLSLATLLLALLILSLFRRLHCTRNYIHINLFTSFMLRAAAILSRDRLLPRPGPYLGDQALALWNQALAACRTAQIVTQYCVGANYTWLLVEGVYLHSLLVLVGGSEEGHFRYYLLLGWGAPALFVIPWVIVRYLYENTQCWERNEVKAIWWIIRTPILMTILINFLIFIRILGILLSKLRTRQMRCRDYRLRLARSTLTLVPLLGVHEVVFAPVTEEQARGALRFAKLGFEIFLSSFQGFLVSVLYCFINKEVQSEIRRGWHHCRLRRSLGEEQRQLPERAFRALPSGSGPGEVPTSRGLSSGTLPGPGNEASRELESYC
ASSAY_NOTES: displacement of [125I]GIP, membranes of CHO-K1 cells expressing human GIP receptor
pKi: −log10 of the molar value.
VALUE_TYPE: pKi

I: XXEGTFISDYXIAXDKIHQQDFVNWLLAQKGKKNDWKHNITQ (Cpa (4-Cl-phenylalanine) at 1; Aib at 2; A5c at 11; Nle at 14) [(Cpa^1, Aib^2, A5c^11, Nle^14)hGIP(1-42)-OH]
II: YXEGTFISDYXIAXDKIHQQDFVNWLLAQKGKKNDWKHNITQ (3Cl-Tyr at 1; Aib at 2; A5c at 11; Nle at 14) [(3Cl-Tyr^1, Aib^2, A5c^11, Nle^14)hGIP(1-42)-OH]
III: FXEGTFISDYXIAXDKIHQQDFVNWLLAQKGKKNDWKHNITQ (4NH2-Phe at 1; Aib at 2; A5c at 11; Nle at 14) [(4NH2-Phe^1, Aib^2, A5c^11, Nle^14)hGIP(1-42)-OH]
IV: YXEGTFISDYXIAMDKIHQQDFVNWLLAQKGKKNDWKHNITQH (2,6Me-Tyr at 1; Aib at 2; A5c at 11) [(2,6Me-Tyr^1, Aib^2, A5c^11, His^43)hGIP(1-43)-OH]
V: YXEGTFISDYXIAXDKIHQQDFVNWLLAQKGKKNDWKHNITQ (3,5Br-Tyr at 1; Aib at 2; A5c at 11; Nle at 14) [(3,5Br-Tyr^1, Aib^2, A5c^11, Nle^14)hGIP(1-42)-OH]
Give the ascending ranking of the items by reported pKi. Return the labels ranked in the requested order, please.
IV, V, I, III, II
